Below are compounds with their IC50 as measured on Methionine aminopeptidase 1 (Saccharomyces cerevisiae S288c, UniProt Q01662).
Sequence (Q01662 whole entry): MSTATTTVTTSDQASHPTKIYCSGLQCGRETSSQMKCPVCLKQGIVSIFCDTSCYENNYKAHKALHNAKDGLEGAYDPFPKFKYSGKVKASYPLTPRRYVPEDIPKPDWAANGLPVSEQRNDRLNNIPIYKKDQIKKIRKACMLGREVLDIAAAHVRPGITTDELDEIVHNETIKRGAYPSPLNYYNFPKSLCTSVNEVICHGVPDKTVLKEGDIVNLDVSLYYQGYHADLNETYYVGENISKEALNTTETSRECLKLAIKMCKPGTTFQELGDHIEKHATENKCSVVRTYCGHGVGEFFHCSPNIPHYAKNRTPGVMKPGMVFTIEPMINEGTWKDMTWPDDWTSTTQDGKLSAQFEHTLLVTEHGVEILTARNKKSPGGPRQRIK
Answer with a number only, understood to be in µM.

Use the examples below as a reference point.
>  <query_smiles>
O=C(Cc1ccccc1)Oc1cccnc1C(=O)Nc1nccs1

>  <u>
µM

>  <IC50>
0.2

$$$$
>  <query_smiles>
COc1ccccc1C(=O)Oc1cccnc1C(=O)Nc1nccs1

>  <u>
µM

>  <IC50>
0.55

$$$$
>  <query_smiles>
O=C(Oc1cccnc1C(=O)Nc1nccs1)c1ccccc1F

>  <u>
µM

>  <IC50>
16

$$$$
>  <query_smiles>
CCC(=O)Oc1cccnc1C(=O)Nc1nccs1

>  <u>
µM

>  <IC50>
0.38

$$$$
>  <query_smiles>
CC(C)COC(=O)Nc1cccnc1C(=O)Nc1nccs1

>  <u>
µM

>  <IC50>
53.7

$$$$
>  <query_smiles>
Nc1cccnc1C(=O)Nc1nccs1

>  <u>
µM

>  <IC50>
32.8

$$$$
>  <query_smiles>
CCCCCC(=O)Oc1cccnc1C(=O)Nc1nccs1

>  <u>
µM

>  <IC50>
1.74

$$$$
>  <query_smiles>
O=CNc1cccnc1C(=O)Nc1nccs1

>  <u>
µM

>  <IC50>
0.32

$$$$

Task: Form: Entry = CC(C)(C)C(=O)Oc1cccnc1C(=O)Nc1nccs1 | System = Methionine aminopeptidase 1 (Saccharomyces cerevisiae S288c, UniProt Q01662) | IC50 = ____
Result: 0.78

Task: Given the entry CC(C)(C)OC(=O)Nc1cccnc1C(=O)Nc1nccs1 , what IC50 was observed with Methionine aminopeptidase 1 (Saccharomyces cerevisiae S288c, UniProt Q01662)?
Result: 3.35

Task: Give IC50 (Methionine aminopeptidase 1 (Saccharomyces cerevisiae S288c, UniProt Q01662)) of the following compound: CCC(=O)Nc1cccnc1C(=O)Nc1nccs1
Result: 0.35

Task: Find the measured IC50: item O=C(Oc1cccnc1C(=O)Nc1nccs1)c1ccc(F)c(Br)c1 , target or system Methionine aminopeptidase 1 (Saccharomyces cerevisiae S288c, UniProt Q01662).
Result: 3.4

Task: Value wanted: IC50 (Methionine aminopeptidase 1 (Saccharomyces cerevisiae S288c, UniProt Q01662)) of entry CCCC[C@@H](N)[C@H](O)C(=O)N[C@@H](C)C(=O)N[C@@H](CC(C)C)C(=O)OC
Result: 95.1

Task: Reported IC50 for Methionine aminopeptidase 1 (Saccharomyces cerevisiae S288c, UniProt Q01662), given CC(C)=CCC(=O)Nc1cccnc1C(=O)Nc1nccs1 ?
Result: 0.14

Task: Could you share what IC50 was measured for O=C(Oc1cccnc1C(=O)Nc1nccs1)c1ccc(F)cc1 , tested on Methionine aminopeptidase 1 (Saccharomyces cerevisiae S288c, UniProt Q01662)?
Result: 62

Task: Any idea what IC50 came out for C/C=C(\C)C(=O)Oc1cccnc1C(=O)Nc1nccs1 on Methionine aminopeptidase 1 (Saccharomyces cerevisiae S288c, UniProt Q01662)?
Result: 0.39

----------
Listed compounds paired with reported Ratio
Test system: Escherichia coli
test_protocol: Selectivity of inhibitory activity of Methionine aminopeptidase 1 from Escherichia coli to Methionine aminopeptidase 1 from Saccharomyces cerevisiae

Example entries begin here.
>  <query_smiles>
CC(C)=CC(=O)Oc1cccnc1C(=O)Nc1nccs1

>  <property_measured>
Ratio

>  <reported>
5.3

$$$$
>  <query_smiles>
O=C(Nc1nccs1)c1ncccc1NC(=O)C(F)(F)F

>  <property_measured>
Ratio

>  <reported>
0.069

$$$$
>  <query_smiles>
O=C(Nc1nccs1)c1ccccn1

>  <property_measured>
Ratio

>  <reported>
0.71

$$$$
>  <query_smiles>
O=C(Nc1cccnc1C(=O)Nc1nccs1)c1cccc(F)c1

>  <property_measured>
Ratio

>  <reported>
< 0.0071

$$$$
>  <query_smiles>
O=C(Oc1cccnc1C(=O)Nc1nccs1)c1ccc(F)cc1

>  <property_measured>
Ratio

>  <reported>
0.018

$$$$
>  <query_smiles>
O=C(Nc1nccs1)c1ncccc1O

>  <property_measured>
Ratio

>  <reported>
0.38

$$$$

Task: I have this compound here, O=C(Nc1nccs1)c1ncccc1NC(=O)C1CCCCC1 , and I need its recorded Ratio.
Result: < 0.0087

Task: Given the compound CCC(=O)Oc1cccnc1C(=O)Nc1nccs1 , what is its reported Ratio?
Result: 14

Task: Item CCC(=O)Nc1cccnc1C(=O)Nc1nccs1 has what recorded Ratio?
Result: 0.74

Task: May I ask what Ratio has been recorded for O=C(Oc1cccnc1C(=O)Nc1nccs1)c1ccccc1[N+](=O)[O-] ?
Result: < 0.021
